measurementTarget: recombinant human ALK protein (Homo sapiens, UniProt Q9UM73)
Construct: purchased Life Technologies Inc. PV3867
Sequence (Q9UM73 1058-1620 limits assumed): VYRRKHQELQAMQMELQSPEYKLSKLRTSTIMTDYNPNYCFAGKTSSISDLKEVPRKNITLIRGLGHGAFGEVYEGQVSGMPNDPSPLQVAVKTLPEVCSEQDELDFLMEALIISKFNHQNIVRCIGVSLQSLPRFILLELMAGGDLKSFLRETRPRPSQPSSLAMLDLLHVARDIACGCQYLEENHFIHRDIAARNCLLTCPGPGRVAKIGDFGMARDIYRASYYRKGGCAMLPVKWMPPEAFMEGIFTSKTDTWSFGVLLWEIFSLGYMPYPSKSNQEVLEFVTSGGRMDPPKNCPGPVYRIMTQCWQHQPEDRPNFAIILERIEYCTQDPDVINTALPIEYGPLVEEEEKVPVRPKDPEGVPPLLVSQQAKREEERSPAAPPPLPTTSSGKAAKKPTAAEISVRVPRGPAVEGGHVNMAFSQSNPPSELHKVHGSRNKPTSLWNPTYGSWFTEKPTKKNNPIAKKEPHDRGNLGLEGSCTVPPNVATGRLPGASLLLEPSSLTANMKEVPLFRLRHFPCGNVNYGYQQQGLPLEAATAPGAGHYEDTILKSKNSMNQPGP
protocolNotes: LanthaScreen TR-FRET in vitro inhibitory activity assay of ALK
Assay type: biochemical
testConditions: compound at 2ug/ml
observationType: Averaged Enzymatic Inhibition @ 2ug/ml (%)

O=C(c1cccc(S(=O)(=O)NC2CCCCCC2)c1)c1cccc(S(=O)(=O)NC2CCCCCC2)c1 [AP-866/40876225]: 9.84
O=C1c2ccccc2-c2onc3c(Sc4ccccc4)cc(Sc4ccccc4)c1c23 [AG-690/40097114]: 1.725
CC1=C(C(=O)Nc2ccccc2)C(c2ccccc2)n2c(s/c(=C/C=C\c3ccccc3)c2=O)=N1 (stereo not shown) [AG-690/37079179]: 15.845
CC(C)N(C(=O)Cn1c(/C=C/c2ccccc2)nc2ccccc21)c1ccccc1 [AF-399/15335536]: 5.725
Cc1ccc(C2C(C(=O)c3cc4ccccc4o3)=C(O)C(=O)N2c2nc3c(C)cc(C)cc3s2)cc1 (stereo not shown) [AF-399/42017504]: -5.97
CCc1ccc2[nH]c3nc(N/N=C/c4ccc(-c5cccc(C(F)(F)F)c5)o4)nnc3c2c1 [AN-655/15262058]: 11.82
CC(C)c1ccc(-c2c(C#N)c(N)nc3sc(C(=O)Nc4ccc(Cl)cc4)c(N)c23)cc1 [AE-848/15116593]: -8.375
Cc1cccc2cc3c(nc12)N(C(=O)c1ccc(S(=O)(=O)N2CCCCC2)cc1)CC3 [Compound M8]: 48.88
O=C1c2cccc3cccc(c23)C(=O)N1CC1CCN(S(=O)(=O)/C=C/c2ccccc2)CC1 [AF-399/14864072]: -20.25
CCC(Oc1ccc2ccccc2c1Br)C(=O)NNC(=O)c1cc2cc(Br)ccc2oc1=O (stereo not shown) [AK-968/37077046]: 3.24
C/C(=N\Nc1nc(-c2ccc(F)cc2)cs1)c1nonc1C [AN-648/40740338]: 23.375
Cc1ccnc(NC(=O)c2ccc(Cl)c(NC(=O)c3ccc(-c4ccccc4)cc3)c2)c1 [AN-652/43161615]: 17.89
O=C1C2=C(NC3=C(C(=O)c4ccccc43)C23C(=O)c2cccc4cccc3c24)c2ccccc21 [AE-848/15341192]: 13.145
COc1cc(/C=N/n2c(-c3ccccc3)n[nH]c2=S)cc(OC)c1O [AG-205/36915079]: 18.19
Cc1ccc(-c2ccc(/C=C3/SC(N4CCN(c5cccc(C)c5)CC4)=NC3=O)o2)cc1 [AF-399/40881300]: 13.735
Cc1c(C=C2C(=O)N(C)C(=S)N(C)C2=O)c2ccccc2n1Cc1ccccc1 [Compound M9]: 37.24
c1ccc2cc3c(ccc4ccc5cc6c(ccc7ccccc76)cc5c43)cc2c1 [AB-131/42301451]: 28.575
C(=C(\Cn1nc(-c2ccccc2)c(-c2ccccc2)c1-c1ccccc1)c1ccccc1)/c1ccccc1 [AK-830/13217169]: 2.08
C=CCN(C(=O)c1ccc2nc(-c3ccccc3)c(-c3ccccc3)nc2c1)c1ccccc1 [AG-205/36717014]: 19.28
O=C(COC(=O)c1c(-c2ccccc2)c(-c2ccccc2)nc2ccccc12)c1ccccc1 [AK-918/15391011]: -13.24
Cc1nc(Nc2nc(CSc3nnnn3-c3ccccc3)cc(=O)[nH]2)nc2ccccc12 [AJ-292/42284747]: 1.31
CCOC(=O)c1c(/N=C(/Nc2ccccc2-c2ccccc2)c2ccccc2)sc2c1CCCC2 [AG-690/40750112]: 16.665
CCOc1cc(/C=N\NC(=O)CCc2ccccc2)ccc1OC(=O)/C=C/c1ccccc1 [AH-487/37011044]: -17.16
c1ccc(-c2cc(-c3c(-c4ccccc4)cn4c3sc3ccccc34)c(-c3ccccc3)nn2)cc1 [AQ-344/43100304]: -14.115
N#Cc1c(N)nc2sc(C(=O)Nc3ccc(Cl)cc3)c(N)c2c1-c1cccs1 [AN-848/43256373]: -5
CCn1cc(/C=C2\C(=O)NC(=S)N(c3cccc4ccccc34)C2=O)c2ccccc21 [AN-465/14954307]: 46.45
O=C1c2ccc(-c3nc4ccccc4s3)cc2C(=O)N1c1cccc(-c2nc3ccccc3s2)c1 [AN-979/41713847]: 5.385
Cc1cc(C)c2oc(-c3ccc(C)c(NC(=O)C(c4ccccc4)c4ccccc4)c3)nc2c1 [AN-465/13859038]: 40.815
CCOc1cc(/C=C2/SC(=O)N(Cc3c(F)cccc3Cl)C2=O)ccc1O [AM-879/41780072]: 12.385
O=C1OC(c2ccccc2Cl)=N/C1=C\c1ccc(OCc2ccccc2)cc1OCc1ccccc1 [AK-968/37055166]: -8.735
O=C(CC1(O)C(=O)N(CCc2ccccc2)c2ccccc21)c1ccc2c(c1)OCCO2 (stereo not shown) [AK-778/41314821]: -1.935

----------
Catalogue of Averaged Enzymatic Inhibition @ 2ug/ml (%) values
measurementTarget: recombinant human ALK protein (Homo sapiens, UniProt Q9UM73)
Construct: purchased Life Technologies Inc. PV3867
protocolNotes: LanthaScreen TR-FRET in vitro inhibitory activity assay of ALK
Format: biochemical
testConditions: compound at 2ug/ml
observationType: Averaged Enzymatic Inhibition @ 2ug/ml (%)

CCCOc1ccc(-c2cc(C(=O)N3CCC(Cc4ccccc4)CC3)c3ccccc3n2)cc1 [AK-968/15360205]: -17.96
Cc1ccc(NC(=O)c2ccc(-c3ccccc3)cc2)c(OC(=O)c2ccc(-c3ccccc3)cc2)c1 [AG-690/09396003]: 3.685
COc1ccc(-n2c(-c3ccc(-c4ccccc4)cc3)nnc2-c2cccc3ccccc23)cc1 [AE-848/32007021]: 5.085
CCCCC1CCC(c2nc3c4c(c(Nc5cccc(C)c5)ccc4n2)C(=O)c2ccccc2-3)CC1 (stereo not drawn) [AH-034/08463011]: 1.2
Cc1cc(C)c2oc(-c3ccc(C)c(NS(=O)(=O)c4cc([N+](=O)[O-])ccc4Cl)c3)nc2c1 [AG-690/08629011]: 26.47
Nc1cc(NC(=O)c2cn(-c3ccccc3)nc2-c2ccccc2)cc(Oc2ccccc2)c1 [AG-205/33688061]: 14.9
Cc1cc(C)c2c(c1)c(-c1ccccc1)c(-c1ccccc1)n2CC(O)CNc1ccc(C(C)C)cc1 (stereo not drawn) [AF-399/15128126]: 32.1
Cc1ccc(-c2nc(N3CC4(C)CC3CC(C)(C)C4)c3ccccc3n2)cc1 (stereo not drawn) [AE-641/40974923]: 13.995
c1ccc(CSc2nnc3c(n2)OC(c2c4ccccc4cc4ccccc24)Nc2ccccc2-3)cc1 (stereo not drawn) [AN-655/13300050]: 23.865
